biological target: EGFR (UniProt P00533)
Sequence (P00533 whole entry, looked up): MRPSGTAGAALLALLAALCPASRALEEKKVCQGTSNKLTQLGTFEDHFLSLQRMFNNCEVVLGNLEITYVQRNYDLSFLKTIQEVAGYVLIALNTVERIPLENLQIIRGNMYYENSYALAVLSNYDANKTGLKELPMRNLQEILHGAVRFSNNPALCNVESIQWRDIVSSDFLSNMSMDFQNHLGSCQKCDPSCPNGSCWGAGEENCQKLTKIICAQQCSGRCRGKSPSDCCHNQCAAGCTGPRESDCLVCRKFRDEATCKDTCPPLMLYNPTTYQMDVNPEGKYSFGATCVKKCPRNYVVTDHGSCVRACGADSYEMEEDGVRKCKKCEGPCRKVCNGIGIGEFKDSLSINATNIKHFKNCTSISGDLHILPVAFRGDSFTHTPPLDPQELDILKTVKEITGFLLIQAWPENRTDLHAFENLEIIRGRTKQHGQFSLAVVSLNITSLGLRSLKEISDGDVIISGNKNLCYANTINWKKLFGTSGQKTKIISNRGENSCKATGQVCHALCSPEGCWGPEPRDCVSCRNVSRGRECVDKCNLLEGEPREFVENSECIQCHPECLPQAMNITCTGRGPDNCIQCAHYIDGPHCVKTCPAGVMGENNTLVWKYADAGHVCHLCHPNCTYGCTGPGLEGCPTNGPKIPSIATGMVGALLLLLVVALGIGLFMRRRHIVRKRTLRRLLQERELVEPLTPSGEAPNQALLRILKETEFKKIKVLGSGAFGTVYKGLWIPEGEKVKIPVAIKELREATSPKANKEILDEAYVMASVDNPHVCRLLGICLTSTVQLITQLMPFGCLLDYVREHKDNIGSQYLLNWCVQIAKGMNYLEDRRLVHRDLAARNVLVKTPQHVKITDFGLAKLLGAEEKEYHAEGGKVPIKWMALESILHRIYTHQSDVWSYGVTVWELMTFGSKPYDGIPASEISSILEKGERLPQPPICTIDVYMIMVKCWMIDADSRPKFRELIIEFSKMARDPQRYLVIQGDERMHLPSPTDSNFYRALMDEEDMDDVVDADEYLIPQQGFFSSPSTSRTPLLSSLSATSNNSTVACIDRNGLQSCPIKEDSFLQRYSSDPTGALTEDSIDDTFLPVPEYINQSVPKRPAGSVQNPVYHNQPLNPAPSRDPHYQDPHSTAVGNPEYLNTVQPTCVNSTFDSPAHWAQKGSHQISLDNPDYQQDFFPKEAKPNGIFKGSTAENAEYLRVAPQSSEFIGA
RECORDED METRIC: IC50

Reference set, count: 9
* COc1cc(Nc2ncnc(-n3c(Nc4cccc(C(N)=O)c4)nc4ccccc43)n2)cc(OC)c1OC | > 4.5 µg/mL
* Cc1cccc(Nc2ncnc(Nc3cc(-c4ccccc4)n[nH]3)n2)c1 | < 0.4 µg/mL
* COc1cc(Nc2ncnc(Nc3cccc(O)c3)n2)cc(OC)c1OC | < 0.4 µg/mL
* NC(=O)c1ccc(Nc2ncnc(-c3ccccc3)n2)cc1 | > 4.5 µg/mL
* COc1cc(Nc2ncnc(-n3c(NCCc4ccncc4)nc4ccccc43)n2)cc(OC)c1OC | > 4.5 µg/mL
* COc1cc(Nc2ncnc(Nc3cccc4ccccc34)n2)cc(OC)c1OC | < 0.4 µg/mL
* CCN(CC)CCOc1cc(Nc2ncnc(-n3c(N)nc4ccccc43)n2)ccc1OC | > 4.5 µg/mL
* COc1cc(Nc2ncnc(-n3c(NCc4ccc(O)cc4)nc4ccccc43)n2)cc(OC)c1OC | > 4.5 µg/mL
* COc1cc(Nc2ncnc(-n3c(=O)[nH]c4ccccc43)n2)cc(OCCN2CCOCC2)c1OC | > 4.5 µg/mL

Alright, here's another compound for you.
Let me check: COC(=O)Cc1cccc(Nc2ncnc(-n3c(NCc4ccccn4)nc4ccccc43)n2)c1 , system EGFR (UniProt P00533), measured IC50 is > 4.5 µg/mL

====

molecular target: EGFR (UniProt P00533)
RECORDED METRIC: IC50

* COc1cc(Nc2ncnc(-n3c(NCc4ccc(F)cc4)nc4ccccc43)n2)cc(OC)c1OC | > 4.5 µg/mL
* COc1cc(Nc2ncnc(N(CC(=O)OC(C)(C)C)c3ccc4c(c3)OCO4)n2)cc(OC)c1OC | 2.4 to 3.5 µg/mL
* COc1cc(Nc2ncnc(N3CCCC3)n2)cc(OC)c1OC | > 4.5 µg/mL

For each of the items listed, what is its IC50?
1. Cc1cccc(Nc2ncnc(-n3cccc3)n2)c1C
2. COc1cc(Nc2ncnc(-c3ccnc(NCCCN)c3)n2)cc(OC)c1OC
3. COc1cc(Nc2ncnc(N3CCc4ccccc43)n2)cc(OC)c1OC
4. COc1cc(Nc2ncnc(Oc3ccc(OCc4ccccc4)cc3)n2)cc(OC)c1OC

Given back:
1: > 4.5 µg/mL; 2: > 4.5 µg/mL; 3: > 4.5 µg/mL; 4: > 4.5 µg/mL

====

Reported IC50, EGFR (UniProt P00533).

Reference set, count: 8
• CCOC(=O)CNc1ncnc(N2CCCc3cc(C)ccc32)n1 = > 4.5 µg/mL
• COc1ccc2c(c1)nc(NCc1ccc(F)cc1)n2-c1ncnc(Nc2cc(OC)c(OC)c(OC)c2)n1.COc1ccc2nc(NCc3ccc(F)cc3)n(-c3ncnc(Nc4cc(OC)c(OC)c(OC)c4)n3)c2c1 = 2.4 to 3.5 µg/mL
• COc1ccc(Nc2ncnc(Nc3cccc(Br)c3)n2)cc1OC = < 0.4 µg/mL
• COc1cc(Nc2ncnc(N(c3ccc(Cl)cc3)c3nc4ccccc4[nH]3)n2)cc(OC)c1OC = < 0.4 µg/mL
• Brc1ccc(Nc2ncnc(-n3cccc3)n2)cc1 = > 4.5 µg/mL
• N#CCc1ccc(Nc2ncnc(Nc3ccc4c(cnn4Cc4ccccc4)c3)n2)cc1 = < 0.4 µg/mL
• COc1cccc(Nc2ncnc(-n3c(N)nc4ccccc43)n2)c1 = 2.4 to 3.5 µg/mL
• COc1cc(Nc2ncnc(N(C)c3cccc(Cl)c3)n2)cc(OC)c1OC = < 0.4 µg/mL

For each of the items listed, what is its IC50?
1. COc1cc(Nc2ncnc(Nc3cc(-c4ccco4)n[nH]3)n2)cc(OC)c1OC
2. Nc1nc2ccccc2n1-c1ncnc(Nc2ccccc2)n1
3. COc1cc(Nc2ncnc(-c3cccnc3NCCC(C)(C)C)n2)cc(OC)c1OC
4. Clc1ccccc1Nc1ncnc(-n2cccc2)n1

Given back:
1. < 0.4 µg/mL
2. > 4.5 µg/mL
3. > 4.5 µg/mL
4. > 4.5 µg/mL

====

target: EGFR (UniProt P00533)
RECORDED METRIC: IC50

* COc1cc(Nc2ncnc(-n3c(NCc4cccnc4)nc4ccccc43)n2)cc(OC)c1OC | > 4.5 µg/mL
* COc1cc(Nc2ncnc(-n3ncc(-c4ccccc4)c3N)n2)cc(OC)c1OC | 2.4 to 3.5 µg/mL
* c1ccc(Cn2ncc3cc(Nc4ncnc(NCc5ccco5)n4)ccc32)cc1 | 0.4 to 2.4 µg/mL

For each of the items listed, what is its IC50?
1. c1ccc(CNc2ncccc2-c2ncnc(Nc3ccc(N4CCOCC4)cc3)n2)cc1
2. Clc1cc(Cl)cc(Nc2ncnc(-n3cccc3)n2)c1
3. COc1ccc(CCNc2ncnc(N3CCCc4cc(C)ccc43)n2)cc1OC

Given back:
["> 4.5 µg/mL", "> 4.5 µg/mL", "> 4.5 µg/mL"]

For each of the items listed, what is its IC50?
1. COc1cc(Nc2ncnc(N[C@H](CO)c3ccccc3)n2)cc(OC)c1OC
2. Cc1ccc2c(c1)CCCN2c1ncnc(Nc2cc[nH]n2)n1
3. NC(=O)c1cccc(Nc2ncnc(-c3ccccc3)n2)c1

Given back:
["0.4 to 2.4 µg/mL", "0.4 to 2.4 µg/mL", "> 4.5 µg/mL"]

For each of the items listed, what is its IC50?
1. COc1cccc(-c2ncnc(Nc3cc(OC)c(OC)c(OC)c3)n2)c1
2. Nc1nc2ccccc2n1-c1ncnc(Cl)n1

Given back:
1. 2.4 to 3.5 µg/mL
2. > 4.5 µg/mL

====

Reported IC50, EGFR (UniProt P00533).

Reference set, count: 3
• COc1cc(Nc2ncnc(-n3c(Nc4ccccc4)nc4ccccc43)n2)cc(OC)c1OC = > 4.5 µg/mL
• COc1cc(Nc2ncnc(-n3c(NCc4ccc([N+](=O)[O-])cc4)nc4ccccc43)n2)cc(OC)c1OC = > 4.5 µg/mL
• COc1ccc(Nc2ncnc(N(C)c3cccc(Cl)c3)n2)cc1 = < 0.4 µg/mL

For each of the items listed, what is its IC50?
1. O=c1[nH]c2ccccc2n1-c1ncnc(Nc2ccc(OC(F)(F)F)cc2)n1
2. COc1cc(Nc2ncnc(-c3ccc(N4CCOCC4)nc3)n2)cc(OC)c1OC
3. COc1cc(Nc2ncnc(-n3c(NCc4ccc(Cl)cc4F)nc4ccccc43)n2)cc(OC)c1OC
4. COc1cc(Nc2ncnc(-n3c(N[C@H](C)c4ccccc4)nc4ccccc43)n2)cc(OC)c1OC

Given back:
1: > 4.5 µg/mL; 2: > 4.5 µg/mL; 3: > 4.5 µg/mL; 4: > 4.5 µg/mL

For each of the items listed, what is its IC50?
1. COc1ccc([C@@H](C)Nc2nc3ccccc3n2-c2ncnc(Nc3cc(OC)c(OC)c(OC)c3)n2)cc1
2. COc1cc(Nc2ncnc(Nc3cccc4ncccc34)n2)cc(OC)c1OC
3. COc1ccc2c(c1)c(CCN(C)C)cn2-c1ncnc(Nc2cc(OC)c(OC)c(OC)c2)n1
4. CN(c1cccc(Cl)c1)c1ncnc(Nc2ccc(CC(=O)O)cc2)n1
5. COc1cc(Nc2ncnc(Nc3cc(C)[nH]n3)n2)cc(OC)c1OC
6. CN(c1cccc(Br)c1)c1ncnc(Nc2cccc(Cc3nnn[nH]3)c2)n1
7. Clc1cccc(Nc2ncnc(Nc3ccc4[nH]ncc4c3)n2)c1

Given back:
> 4.5 µg/mL
2.4 to 3.5 µg/mL
> 4.5 µg/mL
< 0.4 µg/mL
3.5 to 4.5 µg/mL
< 0.4 µg/mL
< 0.4 µg/mL

For each of the items listed, what is its IC50?
1. O=c1[nH]c2ccccc2n1-c1ncnc(Nc2ccccc2Cl)n1
2. O=c1[nH]c2ccccc2n1-c1ncnc(Nc2ccccc2[N+](=O)[O-])n1
3. COc1cc(Nc2ncnc(-c3cccnc3NCc3ccccc3OC(F)(F)F)n2)cc(OC)c1OC
4. O=[N+]([O-])c1cccc(Nc2ncnc(-c3cccs3)n2)c1
5. COc1cc(Nc2ncnc(Nc3n[nH]c(Nc4ccc(Cl)cc4)n3)n2)cc(OC)c1OC

Given back:
1. 0.4 to 2.4 µg/mL
2. > 4.5 µg/mL
3. > 4.5 µg/mL
4. > 4.5 µg/mL
5. 2.4 to 3.5 µg/mL

For each of the items listed, what is its IC50?
1. COc1cc(Nc2ncnc(Nc3cc(-c4ccc(Cl)cc4)n[nH]3)n2)cc(OC)c1OC
2. CN(c1cccc(Cl)c1)c1ncnc(Nc2ccc(OCCO)cc2)n1

Given back:
2.4 to 3.5 µg/mL
< 0.4 µg/mL

====

Reported IC50, EGFR (UniProt P00533).

Reference set, count: 3
• O=C(O)Cc1cccc(Nc2ncnc(-n3c(NCc4ccccc4)nc4ccccc43)n2)c1 = < 0.4 µg/mL
• Nc1nc2ccccc2n1-c1ncnc(N2C(=O)c3ccccc3C2=O)n1 = > 4.5 µg/mL
• Fc1ccccc1Nc1ncnc(-c2ccccc2)n1 = > 4.5 µg/mL

For each of the items listed, what is its IC50?
1. Clc1cccc(Nc2ncnc(-c3cccs3)n2)c1
2. COc1cc(Nc2ncnc(-n3ccc4cc(Cl)ccc43)n2)cc(OC)c1OC
3. COc1cc(Nc2ncnc(Nc3cc(OC)c(OC)c(OC)c3)n2)cc(OC)n1
4. Clc1cc(Nc2ncnc(Nc3ccc4c(cnn4Cc4ccccc4)c3)n2)cc(Cl)c1Cl
5. COc1cc(C)c(Nc2ncnc(Nc3cc(-c4ccccc4)n[nH]3)n2)cc1OC
6. O=C(Nc1cccc(Nc2ncnc(-n3c(=O)[nH]c4ccccc43)n2)c1)O[C@@H]1CCOC1
7. C=CCN(c1cccc(Cl)c1)c1ncnc(Nc2cc(OC)cc(OC)c2)n1
8. Cc1ccc2c(c1)CCCN2c1ncnc(Nc2ccc3ncsc3c2)n1

Given back:
> 4.5 µg/mL
> 4.5 µg/mL
2.4 to 3.5 µg/mL
0.4 to 2.4 µg/mL
0.4 to 2.4 µg/mL
2.4 to 3.5 µg/mL
< 0.4 µg/mL
0.4 to 2.4 µg/mL
